target: Val122Ile transthyretin (V122I-TTR) (Homo sapiens, UniProt P02766, V142I); test: V122I-TTR amyloid fibril formation assay (turbidimetry, acid-induced); assay type: biochemical; settings: V122I-TTR fixed at 3.6 μM, ten compound concentrations, pH 4.4, 72 hours
result.type: IC50 (µM)

molecule	IC50 (µM)
Oc1c(Cl)cc(-c2cc(Cl)c(O)c(Cl)c2)cc1Cl [2OH- PCB80, reference compound]	1.45

1 = O=C(O)CN1C(=O)/C(=C/c2cc(O)c(O)c(Cl)c2)SC1=S
2 = O=C(O)CCN1C(=O)/C(=C/c2cc(Cl)cc(Cl)c2)SC1=S
3 = O=C(O)CCN1C(=O)/C(=C/c2cc(Cl)c(O)c(Cl)c2)SC1=S
4 = O=C(O)CN1C(=O)/C(=C/c2cc(F)cc(F)c2)SC1=S
### Prompt Ordering: ascending IC50. Reply with the item labels sorted in the order that was asked for.
### Response 3, 1, 2, 4
